experiment: S. cerevisiae RM11-1a growth modifiers, primary screen, strain RM11-1a, OD600, basal, 24 h (AID 1177); details: OD600, 24 h, higher = more signal, called active from +8 up or from −8 down;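 note: cultures grown under basal conditions with no added stressor; test concentration not given here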
assay readout: z-score
I only need the number, thanks.

Worked examples follow.
I would be grateful if you could share the reported z-score for CCOc1cc(C(O)C2C=CC3C(=O)N(C4CCCCC4)C(=O)C3N2Nc2ccc(OC)cc2)ccc1O (centres undefined) . 0.0701

Next up: Cc1ccc(S[C@]2(C(=O)NCC(C)C)CC(=O)N(Cc3ccccc3Cl)[C@@H]2c2ccc(CO)cc2I)cc1 -1.33

Next up: CC(=O)NCCCC[C@@H]1NC(=O)[C@@H]2C[C@H](C(=O)O)[C@H](c3ccc(O)cc3)N2C1=O 0.88

Moving on to another compound below.
I would be grateful if you could share the reported z-score for CN(C)CCCNC(=O)[C@@H]1c2ccccc2C(=O)N(CC23CC4CC(CC(C4)C2)C3)[C@H]1c1ccc(CO)cc1 . 0.28

----------
assay: small-molecule binders of probe aLefty1, primary screen, biochemical, small-molecule microarray, 635/667 nm fluorescence (AID 1153); conditions: higher = more signal;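 note: score merges spot fluorescence with signal-to-noise ratio from the scanned slide images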
assay readout: composite z-score

I would be grateful if you could share the reported composite z-score for C=CC[C@H](OC(=O)Nc1ccc(OC)cc1)c1ccc(O)c2ccccc12 . 0.122

Next up: CN(C)CCCNC(=O)[C@@H]1c2ccccc2C(=O)N(CC23CC4CC(CC(C4)C2)C3)[C@H]1c1ccc(CO)cc1 -0.262

Next up: Cc1ccc(S[C@]2(C(=O)NC(C)C)CC(=O)N(Cc3ccccc3C(F)(F)F)[C@@H]2c2ccc(CO)cc2I)cc1 0.135

Next up: COCCCNC(=O)[C@@H]1c2ccccc2C(=O)N(Cc2ccccc2C(F)(F)F)[C@H]1c1ccc(CO)cc1 -0.198

Next up: CO[C@H]1O[C@H](CO)[C@@H](OC(=O)Nc2ccc(Oc3ccccc3)cc2)[C@H](OC(=O)Nc2ccccc2-c2ccccc2)[C@@H]1OC(=O)Nc1ccccc1-c1ccccc1 0.361

Next up: C=C(/C(=C/C[C@@H](OC(=O)c1ccncc1)c1ccc(OCCO)cc1)c1cc(C(=O)OC)ccc1OC)C(C)C -0.0984

Next up: Cc1ccc(F)cc1S(=O)(=O)N[C@@H]1CCN(Cc2ccc(OC(C)C)cc2)C1 -0.186

Next up: COc1ccc(NN2C(C(O)c3ccco3)C=CC3C(=O)N(C4CCCCC4)C(=O)C32)cc1 (centres undefined) 0.364

More entries:
I would be grateful if you could share the reported composite z-score for CN(C)CCCN1C(=O)[C@@]2(c3ccc([N+](=O)[O-])cc3)CC(=O)N(CC34CC5CC(CC(C5)C3)C4)[C@@H]2c2ccc(CO)cc21 . -0.0662

Next up: COC(=O)[C@@]1(Cc2ccc(OC)cc2)[C@H]2c3cc(C(=O)N(C)C)n(Cc4ccccc4)c3C[C@H]2CN1C(=O)c1ccccc1 0.748

Next up: COCCOC(=O)N1C(=O)[C@@]2(c3cc(C#CCC(C(=O)OC)C(=O)OC)ccc31)[C@H](c1ccc(OCCO)cc1)N1[C@H](c3ccccc3)[C@H](c3ccccc3)OC(=O)[C@H]1[C@@H]2C(=O)N1CCN(c2ncccn2)CC1 0.297

Next up: COCCOC(=O)N1C(=O)[C@@]2(c3cc(C#Cc4ccc(OC)cc4)ccc31)[C@H](C(=O)N1CCN(c3ncccn3)CC1)[C@H]1C(=O)O[C@H](c3ccccc3)[C@H](c3ccccc3)N1[C@@H]2c1ccccc1OCCO 0.406

----------
assay: adipocyte viability effects, profiling panel, cell-based, 3T3-L1 adipocytes, calcein-AM fluorescence, 48 h, basal (AID 1163); conditions: 3T3-L1 adipocytes viability, higher = more signal; note: test concentration not given here
# maps each entry to its z-score

I would be grateful if you could share the reported z-score for CC(C)C(O)C1C=CC2C(=O)N(C)C(=O)C2N1N(c1ccccc1)c1ccccc1 (stereo not drawn) . -1.24

Next up: NC(N)=NCc1cn(CCc2c[nH]c3ccccc23)nn1 -0.596

Next up: COc1ccc([Si](C)(C)[C@@H]2[C@@H](CCO)O[C@]3(C(=O)N(Cc4cccc(N5C(=O)c6ccccc6Oc6ccccc65)c4)c4ccccc43)[C@H]2C)cc1 -0.472

Next up: O=C1NC(=O)C2C1C=CC(C(O)c1cc(C(F)(F)F)cc(C(F)(F)F)c1)N2Nc1ccc(Cl)cc1Cl (stereo not drawn) 0.0578

Next up: C=CCOC(=O)[C@H]1[C@@H]2C(=O)O[C@@H](c3ccccc3)[C@@H](c3ccccc3)N2[C@@H](c2ccc(OCCOC(=O)[C@H]3C[C@H]4C(=O)N[C@@H](Cc5ccccc5)C(=O)N4[C@H]3c3cccc(OCCO)c3)cc2)[C@]12C(=O)Nc1ccc(I)cc12 -0.532

Next up: C=CC[C@H](OC(=O)Nc1ccc(OC)cc1)c1ccc(O)c2ccccc12 -1.07

Next up: COc1ccc(CCNC(=O)[C@@]2(Sc3ccc(C)cc3)CC(=O)N(Cc3cc(C(F)(F)F)cc(C(F)(F)F)c3)[C@@H]2c2ccc(CO)cc2I)cc1 -0.208

Moving on to another compound below.
I would be grateful if you could share the reported z-score for CC1CC/C=C\[C@H]2OC34C=CCN(CCN5CCOCC5)C(=O)[C@H]3N(CCO)C(=O)[C@@H]4C2C(=O)O1 (stereo partly drawn) . 1.44

----------
experiment: P. aeruginosa biofilm formation inhibitors, primary screen, strain PAO1, LB-PBS medium, absorbance 600 nm (AID 1176); note: test concentration not given here; conditions: P. aeruginosa PAO1 growth/biofilm, A600, 12 h; higher = more signal
Is z-score at least 0.6? Then TRUE. If not, FALSE.

Worked cases, answers included:
Check this compound for z-score at or above 0.6: COC(=O)c1c(CC[C@@H](CO)NC(=O)N[C@H](Cn2cc(-c3ccccc3C)nn2)C(C)C)oc(C(C)=O)c1C(=O)OC FALSE

Next up: CN(C)CCCNC(=O)[C@@]1(c2ccc([N+](=O)[O-])cc2)CC(=O)N(CC23CC4CC(CC(C4)C2)C3)[C@@H]1c1ccc(CO)cc1 FALSE

More entries:
Check this compound for z-score at or above 0.6: NCCCCCCNC(=O)[C@@H]1C[C@@H]2C(=O)N3CCC[C@H]3C(=O)N2[C@@H]1c1ccc(O)cc1 FALSE

Next up: COCCOC(=O)N1C(=O)[C@@]2(c3cc(C#Cc4ccc(OC)cc4)ccc31)[C@H](C(=O)N1CCN(c3ncccn3)CC1)[C@H]1C(=O)O[C@H](c3ccccc3)[C@H](c3ccccc3)N1[C@@H]2c1ccccc1OCCO TRUE

Next up: COC(=O)C1(Cc2ccccc2)C=C2C(=C(C(C)C)C(=O)C2C)CN1 (configuration not stated) TRUE

Next up: O=C1NCC(=O)N2[C@@H]1C[C@@H](C(=O)O)[C@H]2c1ccc(O)cc1 FALSE

Next up: CC(C)N1CC=CC23O[C@@H]4C=CCOC(=O)[C@@H]4[C@H]2C(=O)N(C(C)CO)[C@@H]3C1=O (some centres not stated) FALSE

----------
# maps each entry to its z-score
test: cell viability in Huh7 cells, primary screen, cytotoxicity control for HCV replication inhibitor project, CellTiter-Glo luminescence, basal, 48 h (AID 1143); conditions: Huh7 HCV replicon, higher = more signal, called active from +8 up or from −8 down;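 note: Huh7 hepatoma cells carrying a hepatitis C replication reporter with no stimulus; test concentration not given here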
I only need the number, thanks.

I would be grateful if you could share the reported z-score for CC(C)NC(=O)[C@@]1(C)c2ccccc2C(=O)N(C(C)C)[C@H]1c1ccc(CO)cc1 . 0.0942

Next up: CCOC(=O)C[C@H]1[C@H](OC(=O)c2ccc(-c3ccccc3)cc2)[C@@H](NC(=O)C2CCCCC2)c2cc(OCCCO)ccc2N1C(=O)c1ccccc1 -0.0788

Next up: C[C@@H]1ON(c2ccc(C(=O)OC(C)(C)C)cc2)[C@H](c2ccc(Br)cc2)[C@H]1C(=O)N1C(=O)OC[C@H]1Cc1ccccc1 -1.09

More entries:
I would be grateful if you could share the reported z-score for C=C(CCCC)C(=O)CC[C@@H](OC(=O)c1cccnc1)c1ccccc1OCCO . -1.55

----------
# maps each entry to its composite z-score
system: Human papillomavirus type 1a E7 protein (residues 1-88); test: HPV1a E7 small-molecule binders, primary screen, biochemical, small-molecule microarray, residues 1-88, 635 nm (AID 1129); conditions: small-molecule microarray binding, fluorescence 635 nm; higher = more signal
I only need the number, thanks.

Worked examples follow.
I would be grateful if you could share the reported composite z-score for C=C(C(=O)CC[C@H](OC(C)=O)c1cccc(OCCO)c1)C(C)C . -1.35

Next up: NC(=O)N1C(=O)C2C(C1=O)C1C=C(c3ccc(CO)cc3)C2C(C2CC2)N1Cc1sc2ccccc2c1Cl (stereo not given) 1.13

Next up: O=C1NC(=O)C2C1C=CC(C(O)c1c(F)cccc1Cl)N2Nc1ccccn1 (stereo not given) 0.257

Next up: COC(=O)C1(Cc2ccccc2)C=C2C(=C(c3ccccc3)C(=O)C2C)CN1 (stereo not given) 1.11

Next up: NC(=O)NCC#Cc1ccc2c(c1)[C@]1(C(=O)N2)[C@H](C(=O)O)[C@H]2C(=O)O[C@H](c3ccccc3)[C@H](c3ccccc3)N2[C@@H]1c1ccccc1OCCO 0.866

More entries:
I would be grateful if you could share the reported composite z-score for C=C(C(=O)CC[C@H](OC(=O)c1cccnc1)c1ccc(CO)o1)C(C)C . 1.09

Next up: O=C1O[C@@H](c2ccccc2)[C@@H](c2ccccc2)N2[C@@H](c3ccc(O)cc3)[C@]3(C(=O)Nc4ccccc43)[C@@H](C(=O)Nc3nc4ccccc4s3)[C@H]12 1.18

Next up: CCOC(=O)C[C@H]1[C@H](OC(=O)c2ccc(-c3ccccc3)cc2)[C@@H](NC(=O)C2CCCCC2)c2cc(OCCCO)ccc2N1C(=O)c1ccccc1 0.755

Next up: Cc1ccc(F)cc1S(=O)(=O)N[C@@H]1CCN(Cc2ccc(OC(C)C)cc2)C1 -1.37

Next up: CCOC(=O)[C@H]1C/C=C/C[C@H](C(=O)OCC)C(=O)O[C@H]2[C@@H](OC)O[C@H](CO)[C@@H](OC(=O)CCc3ccccc3)[C@@H]2OC1=O -0.267

Next up: COCCOC(=O)N1C(=O)[C@@]2(c3cc(C#CCNC(N)=O)ccc31)[C@H](C(=O)N1CCCCCCC1)[C@H]1C(=O)O[C@H](c3ccccc3)[C@H](c3ccccc3)N1[C@@H]2c1ccc(O)cc1 1

Next up: C=C[C@@H](C)[C@H](OC(=O)Nc1ccc(SC)cc1)c1ccc(OCCO)cc1 -0.784

Next up: Cc1c(NC(=O)/C(C#N)=C/C=C/c2ccc(N(C)C)cc2)c(=O)n(-c2ccccc2)n1C 1.18

Next up: COCCOC(=O)N1C(=O)[C@@]2(c3cc(C#CC4(O)CCCCCC4)ccc31)[C@H](C(N)=O)[C@H]1C(=O)O[C@H](c3ccccc3)[C@H](c3ccccc3)N1[C@@H]2c1ccccc1OCCO 1.22

Next up: CC(C)N1C(=O)[C@@]2(c3ccc([N+](=O)[O-])cc3)CC(=O)N(C3CCCCC3)[C@@H]2c2ccc(CO)cc21 -0.695
